# study-target: E. coli OGDH E1 (Escherichia coli)
# test-details: E. coli OGDH E1 inhibitory activity assay (DCPIP reduction)
# Assay type: biochemical
# experimental-conditions: [TPP] = 60 µM
observable: vs TPP: affinity of the compound relative to that of TPP (= [TPP]/IC50)
// no unit, no text: just the number

Example cases with answers are listed next.
Cc1ncc(Cn2cc(CCCC(=O)[O-])nn2)c(N)n1.[K+] [16a] | 0.19
Cc1ncc(Cn2cc(CCCC(C(=O)[O-])C(=O)[O-])nn2)c(N)n1.[K+].[K+] [14b] | 0.90
Cc1ncc(Cn2cc(CCCCC(=O)[O-])nn2)c(N)n1.[K+] [16b] | 0.22
COC(=O)CCCc1cn(Cc2cnc(C)nc2N)nn1 [15a] | 0.15
COC(=O)C(CCc1cn(Cc2cnc(C)nc2N)nn1)C(=O)OC [13a] | 0.15

Consider the compound shown here: Cc1ncc(Cn2cc(CCC(C(=O)[O-])C(=O)[O-])nn2)c(N)n1.[K+].[K+] [14a] What is its recorded vs TPP: affinity of the compound relative to that of TPP (= [TPP]/IC50)?
0.57

Consider the compound shown here: COC(=O)CCCCc1cn(Cc2cnc(C)nc2N)nn1 [15b] What is its recorded vs TPP: affinity of the compound relative to that of TPP (= [TPP]/IC50)?
0.17

Consider the compound shown here: COC(=O)C(CCCc1cn(Cc2cnc(C)nc2N)nn1)C(=O)OC [13b] What is its recorded vs TPP: affinity of the compound relative to that of TPP (= [TPP]/IC50)?
0.24

----------
In this section we review reported Papp at 10 h, 500 µM values for a set of compounds.
# test-details: PAMPA (parallel artificial membrane permeability assay)
# Type: in vitro ADME
# experimental-conditions: PAMPA; compounds at 500 µM, 5% DMSO in PBS pH 7.4, 10 hours, room temperature; read-out: PAMPA log Pe (converted)
Give just the number in ×10⁻⁶ cm/s; leave the unit off.

Example cases with answers are listed next.
Cc1ncc(Cn2cc(CCC(C(=O)[O-])C(=O)[O-])nn2)c(N)n1.[K+].[K+] [14a] | 0.316
CCC(CC)COC(=O)[C@H](C)NP(=O)(OCCc1cn(Cc2cnc(C)nc2N)nn1)Oc1ccccc1 (stereo partly shown) | 7.94
COC(=O)C(CCc1cn(Cc2cnc(C)nc2N)nn1)C(=O)OC [13a] | 6.31
Cc1ncc(Cn2cc(CCCC(=O)[O-])nn2)c(N)n1.[K+] [16a] | 0.398
COC(=O)CCCc1cn(Cc2cnc(C)nc2N)nn1 [15a] | 5.01

Consider the compound shown here: Cc1ncc(Cn2cc(CCCCC(=O)[O-])nn2)c(N)n1.[K+] [16b] What is its recorded Papp at 10 h, 500 µM?
0.398

Consider the compound shown here: Cc1ncc(Cn2cc(CCCC(C(=O)[O-])C(=O)[O-])nn2)c(N)n1.[K+].[K+] [14b] What is its recorded Papp at 10 h, 500 µM?
0.158

Consider the compound shown here: COC(=O)C(CCCc1cn(Cc2cnc(C)nc2N)nn1)C(=O)OC [13b] What is its recorded Papp at 10 h, 500 µM?
6.31

Consider the compound shown here: Cc1ncc(Cn2cc(CCOP(=O)(O)O)nn2)c(N)n1 What is its recorded Papp at 10 h, 500 µM?
0.398

Consider the compound shown here: COC(=O)CCCCc1cn(Cc2cnc(C)nc2N)nn1 [15b] What is its recorded Papp at 10 h, 500 µM?
6.31

----------
# study-target: S. cerevisiae PDC (Saccharomyces cerevisiae, UniProt P06169)
# Construct: purchased Sigma
# Sequence (P06169 2-563 limits assumed): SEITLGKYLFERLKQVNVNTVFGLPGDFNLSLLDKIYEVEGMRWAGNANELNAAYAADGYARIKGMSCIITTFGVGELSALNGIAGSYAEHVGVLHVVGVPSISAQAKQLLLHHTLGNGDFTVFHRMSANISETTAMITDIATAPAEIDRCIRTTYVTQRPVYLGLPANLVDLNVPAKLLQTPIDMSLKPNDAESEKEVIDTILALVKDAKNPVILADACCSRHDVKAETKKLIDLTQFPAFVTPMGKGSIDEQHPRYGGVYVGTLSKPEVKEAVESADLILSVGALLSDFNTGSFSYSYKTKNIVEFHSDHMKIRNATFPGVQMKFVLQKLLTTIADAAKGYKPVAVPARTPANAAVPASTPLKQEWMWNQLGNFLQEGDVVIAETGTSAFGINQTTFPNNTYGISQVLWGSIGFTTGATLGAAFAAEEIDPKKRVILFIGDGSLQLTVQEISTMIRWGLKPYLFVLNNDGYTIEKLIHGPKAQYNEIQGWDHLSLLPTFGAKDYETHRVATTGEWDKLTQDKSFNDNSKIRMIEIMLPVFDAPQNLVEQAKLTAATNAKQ
# test-details: S. cerevisiae PDC inhibitory activity assay (DCPIP reduction)
# Format: biochemical
# Protocol: S. cerevisiae PDC was purchased from Sigma. S. cerevisiae PDC activity was determined by monitoring DCPIP reduction at 600 nm using a microplate reader (CLARIOstar) and conducted as described[5] with some modifications. […] Specific activity was calculated using the molar extinction coefficient of DCPIP, 21 mM^–1 cm^–1.[28] The IC50 values were calculated from nonlinear regression curve fitting using GraphPad Prism. […] calculated from non-linear regression curve fitting using GraphPad Prism. […]
In this section we review reported Ki values for a set of compounds.
Give just the number in µM; leave the unit off.

COC(=O)CCCCc1cn(Cc2cnc(C)nc2N)nn1 [15b] | 79

Consider the compound shown here: COC(=O)C(CCCc1cn(Cc2cnc(C)nc2N)nn1)C(=O)OC [13b] What is its recorded Ki?
71

Consider the compound shown here: COC(=O)C(CCc1cn(Cc2cnc(C)nc2N)nn1)C(=O)OC [13a] What is its recorded Ki?
94

Consider the compound shown here: COC(=O)CCCc1cn(Cc2cnc(C)nc2N)nn1 [15a] What is its recorded Ki?
88

----------
# study-target: Porcine PDH E1 (Sus scrofa)
# Sequence (P29804 31-390): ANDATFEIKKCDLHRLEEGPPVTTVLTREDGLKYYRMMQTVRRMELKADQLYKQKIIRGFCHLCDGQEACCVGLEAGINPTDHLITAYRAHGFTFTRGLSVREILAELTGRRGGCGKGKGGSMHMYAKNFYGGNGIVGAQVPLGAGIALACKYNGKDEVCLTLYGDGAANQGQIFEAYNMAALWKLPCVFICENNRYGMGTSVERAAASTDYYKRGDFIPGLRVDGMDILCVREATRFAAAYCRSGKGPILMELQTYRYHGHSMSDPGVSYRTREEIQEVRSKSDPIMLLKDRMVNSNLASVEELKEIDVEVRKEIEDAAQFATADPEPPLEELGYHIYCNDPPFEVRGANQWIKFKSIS
# test-details: Porcine PDH E1 inhibitory activity assay (DCPIP reduction)
# Type: biochemical
# experimental-conditions: [Compound] = [TPP] = 250 μM; read-out: % Inhibition (1:1)
observable: inhibition at 250 µM (%)
Give just the number in %; leave the unit off.

Example cases with answers are listed next.
Cc1ncc(Cn2cc(CCC(C(=O)[O-])C(=O)[O-])nn2)c(N)n1.[K+].[K+] [14a] | 62
COC(=O)C(CCCc1cn(Cc2cnc(C)nc2N)nn1)C(=O)OC [13b] | 48
Cc1ncc(Cn2cc(CCCCC(=O)[O-])nn2)c(N)n1.[K+] [16b] | 40
COC(=O)CCCc1cn(Cc2cnc(C)nc2N)nn1 [15a] | 25
Cc1ncc(Cn2cc(CCCC(C(=O)[O-])C(=O)[O-])nn2)c(N)n1.[K+].[K+] [14b] | 72

Consider the compound shown here: COC(=O)CCCCc1cn(Cc2cnc(C)nc2N)nn1 [15b] What is its recorded inhibition at 250 µM?
31

Consider the compound shown here: Cc1ncc(Cn2cc(CCCC(=O)[O-])nn2)c(N)n1.[K+] [16a] What is its recorded inhibition at 250 µM?
34

Consider the compound shown here: COC(=O)C(CCc1cn(Cc2cnc(C)nc2N)nn1)C(=O)OC [13a] What is its recorded inhibition at 250 µM?
36

----------
# study-target: E. coli OGDH E1 (Escherichia coli, UniProt P0AFG3)
# Sequence (P0AFG3 whole entry): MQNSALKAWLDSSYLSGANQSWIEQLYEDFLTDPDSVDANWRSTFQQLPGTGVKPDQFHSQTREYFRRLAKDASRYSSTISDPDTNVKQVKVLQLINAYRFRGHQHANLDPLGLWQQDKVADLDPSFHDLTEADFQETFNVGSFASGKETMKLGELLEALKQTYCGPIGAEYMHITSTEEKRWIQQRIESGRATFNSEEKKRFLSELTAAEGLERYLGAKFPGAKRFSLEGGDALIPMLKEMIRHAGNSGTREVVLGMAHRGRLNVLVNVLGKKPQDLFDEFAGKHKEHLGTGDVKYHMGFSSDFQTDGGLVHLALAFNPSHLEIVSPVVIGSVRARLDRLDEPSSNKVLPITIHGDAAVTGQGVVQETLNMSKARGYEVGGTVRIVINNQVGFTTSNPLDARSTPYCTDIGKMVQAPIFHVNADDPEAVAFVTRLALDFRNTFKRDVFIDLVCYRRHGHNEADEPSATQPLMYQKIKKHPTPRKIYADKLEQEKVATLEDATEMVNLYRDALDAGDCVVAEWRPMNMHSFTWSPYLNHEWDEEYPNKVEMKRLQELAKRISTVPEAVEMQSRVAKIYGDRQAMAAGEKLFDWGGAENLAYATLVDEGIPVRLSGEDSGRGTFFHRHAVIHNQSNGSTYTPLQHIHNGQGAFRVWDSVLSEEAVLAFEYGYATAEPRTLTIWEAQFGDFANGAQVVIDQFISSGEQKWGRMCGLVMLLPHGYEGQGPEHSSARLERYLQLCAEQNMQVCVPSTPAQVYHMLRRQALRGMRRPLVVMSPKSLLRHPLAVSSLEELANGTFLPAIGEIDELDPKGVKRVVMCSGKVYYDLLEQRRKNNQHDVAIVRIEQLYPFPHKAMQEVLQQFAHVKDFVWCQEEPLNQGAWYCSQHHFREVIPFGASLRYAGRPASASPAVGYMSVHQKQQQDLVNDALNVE
# test-details: E. coli OGDH E1 inhibitory activity assay (DCPIP reduction)
# Type: biochemical
# experimental-conditions: [Compound] = [TPP] = 250 μM; read-out: % Inhibition (1:1)
observable: inhibition at 250 µM

Example cases with answers are listed next.
Cc1ncc(Cn2cc(CCCCC(=O)[O-])nn2)c(N)n1.[K+] [16b] | 22%
COC(=O)C(CCc1cn(Cc2cnc(C)nc2N)nn1)C(=O)OC [13a] | < 20%
Cc1ncc(Cn2cc(CCCC(C(=O)[O-])C(=O)[O-])nn2)c(N)n1.[K+].[K+] [14b] | 47%
COC(=O)C(CCCc1cn(Cc2cnc(C)nc2N)nn1)C(=O)OC [13b] | 23%
Cc1ncc(Cn2cc(CCCC(=O)[O-])nn2)c(N)n1.[K+] [16a] | < 20%

Consider the compound shown here: Cc1ncc(Cn2cc(CCC(C(=O)[O-])C(=O)[O-])nn2)c(N)n1.[K+].[K+] [14a] What is its recorded inhibition at 250 µM?
36%

Consider the compound shown here: COC(=O)CCCc1cn(Cc2cnc(C)nc2N)nn1 [15a] What is its recorded inhibition at 250 µM?
< 20%

Consider the compound shown here: COC(=O)CCCCc1cn(Cc2cnc(C)nc2N)nn1 [15b] What is its recorded inhibition at 250 µM?
< 20%

----------
# study-target: S. cerevisiae PDC (Saccharomyces cerevisiae)
# Construct: purchased Sigma
# test-details: S. cerevisiae PDC inhibitory activity assay (DCPIP reduction)
# Format: biochemical
# experimental-conditions: [Compound] = 750 μM, [TPP] = 150 μM
Rule: % Inhibition (5:1) under 60% gives Criterion not met, otherwise Criterion met.

Example entries and their recorded answers appear below.
COC(=O)CCCCc1cn(Cc2cnc(C)nc2N)nn1 [15b] | Criterion not met
Cc1ncc(Cn2cc(CCC(C(=O)[O-])C(=O)[O-])nn2)c(N)n1.[K+].[K+] [14a] | Criterion met

Has COC(=O)CCCc1cn(Cc2cnc(C)nc2N)nn1 [15a] a recorded % Inhibition (5:1) greater than or equal to 60%?
Criterion not met

Has Cc1ncc(Cn2cc(CCCC(C(=O)[O-])C(=O)[O-])nn2)c(N)n1.[K+].[K+] [14b] a recorded % Inhibition (5:1) greater than or equal to 60%?
Criterion met

Has COC(=O)C(CCc1cn(Cc2cnc(C)nc2N)nn1)C(=O)OC [13a] a recorded % Inhibition (5:1) greater than or equal to 60%?
Criterion not met

Has COC(=O)C(CCCc1cn(Cc2cnc(C)nc2N)nn1)C(=O)OC [13b] a recorded % Inhibition (5:1) greater than or equal to 60%?
Criterion not met

Has Cc1ncc(Cn2cc(CCCC(=O)[O-])nn2)c(N)n1.[K+] [16a] a recorded % Inhibition (5:1) greater than or equal to 60%?
Criterion not met
